Target: dehydrogenase/reductase SDR family member 11 (DHRS11) (Homo sapiens, UniProt Q6UWP2)
Construct: Homogenous recombinant DHRS11
Sequence (Q6UWP2 31-260): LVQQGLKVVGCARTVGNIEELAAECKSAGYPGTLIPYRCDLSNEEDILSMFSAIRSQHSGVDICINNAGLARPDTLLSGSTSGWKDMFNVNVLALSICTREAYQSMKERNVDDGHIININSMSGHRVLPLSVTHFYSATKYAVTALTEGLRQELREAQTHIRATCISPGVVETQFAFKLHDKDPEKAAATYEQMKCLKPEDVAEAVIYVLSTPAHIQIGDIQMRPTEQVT
Assay: reductase activity of recombinant DHRS11, NADPH absorbance at […] nm, isatin substrate

Smi | System name | IC50
Cc1c(O)cc(O)c2c(=O)cc(/C=C/c3ccc(O)cc3)oc12 | dehydrogenase/reductase SDR family member 11 (DHRS11) (Homo sapiens, UniProt Q6UWP2) | 350 nM
